assay.target: T1, IL-1beta (UniProt P01584 117-269)
T1 construct: also called IL-1β
method: Biacore
quantity.measured: fold difference in affinity vs parental (fold)
Value expressed in fold; do not type the unit.

binder: XPA23 Fab, heavy chain S54F (Fab, V domains shown) VH: EVQLLESGGGLVQPGGSLRLSCAASGFTFSKYFMFWVRQAPGKGLEWVSVISPFGGMTRYADSVKGRFTISRDNSKNTLYLQMNSLRAEDTAVYYCARVGYGGNSDYWGQGTLVTVSS VL: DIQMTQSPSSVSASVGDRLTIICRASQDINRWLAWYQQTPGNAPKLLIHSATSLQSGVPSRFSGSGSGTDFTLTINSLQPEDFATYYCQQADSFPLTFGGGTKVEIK
fold difference in affinity vs parental (fold): 0.87

binder: XPA23 Fab, heavy chain G56Y (Fab, V domains shown) VH: EVQLLESGGGLVQPGGSLRLSCAASGFTFSKYFMFWVRQAPGKGLEWVSVISPSGYMTRYADSVKGRFTISRDNSKNTLYLQMNSLRAEDTAVYYCARVGYGGNSDYWGQGTLVTVSS VL: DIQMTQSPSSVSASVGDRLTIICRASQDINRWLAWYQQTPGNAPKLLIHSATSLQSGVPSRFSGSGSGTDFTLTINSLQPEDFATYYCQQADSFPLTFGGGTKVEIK
fold difference in affinity vs parental (fold): 1.27

Please turn your attention to the following entry.
Looking up XPA23 Fab, heavy chain K31R (Fab, V domains shown) VH: EVQLLESGGGLVQPGGSLRLSCAASGFTFSRYFMFWVRQAPGKGLEWVSVISPSGGMTRYADSVKGRFTISRDNSKNTLYLQMNSLRAEDTAVYYCARVGYGGNSDYWGQGTLVTVSS VL: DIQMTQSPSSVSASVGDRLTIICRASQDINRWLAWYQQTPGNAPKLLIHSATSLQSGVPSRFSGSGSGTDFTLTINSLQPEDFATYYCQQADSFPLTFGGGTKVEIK , I found its fold difference in affinity vs parental recorded as 0.9
